Listed here: molecules with reported log10(Ki) for hCA IX (Homo sapiens).
Experimental readout: log10(Ki) (log10 of the value in µM)

[[record]]
molecule = "Cc1c(CC(=O)O)c(=O)oc2c(C)c3occ(-c4ccc(F)cc4F)c3cc12 [EMAC10164h]"
reading = 0.63

[[record]]
molecule = "COC(=O)Cc1c(C)c2ccc(OCC(=O)c3ccc(Br)cc3)c(C)c2oc1=O [EMAC10163c]"
reading = 0.62

[[record]]
molecule = "Cc1c(CC(=O)O)c(=O)oc2c(C)c3occ(-c4ccc(F)cc4)c3cc12 [EMAC10164d]"
reading = -0.34

[[record]]
molecule = "COC(=O)Cc1c(C)c2ccc(OCC(=O)c3ccc(F)cc3)c(C)c2oc1=O [EMAC10163d]"
reading = 0.38

[[record]]
molecule = "COc1cccc(-c2coc3c(C)c4oc(=O)c(CC(=O)O)c(C)c4cc23)c1 [EMAC10164k]"
reading = 0.62

[[record]]
molecule = "COC(=O)Cc1c(C)c2ccc(OCC(=O)c3ccc(F)cc3F)c(C)c2oc1=O [EMAC10163h]"
reading = 0.65

[[record]]
molecule = "COC(=O)Cc1c(C)c2ccc(OCC(=O)c3ccc([N+](=O)[O-])cc3)c(C)c2oc1=O [EMAC10163e]"
reading = 0.67

[[record]]
molecule = "COC(=O)Cc1c(C)c2ccc(OCC(=O)c3ccc(C)cc3)c(C)c2oc1=O [EMAC10163a]"
reading = 0.47

[[record]]
molecule = "Cc1c(CC(=O)O)c(=O)oc2c(C)c3occ(-c4ccc(-c5ccccc5)cc4)c3cc12 [EMAC10164g]"
reading = -0.15

